System: Mel-DCC-11-R
Experiment: cell viability relative to DMSO control (fraction of DMSO control); higher = less cytotoxic, active = 0.8 or less
Settings: 1 µM; 120 h; vemurafenib co-treatment 8 µM
Outcome field: choose from active, inactive

Below are worked cases with known answers.
- molecule: "COC(=O)N[C@@H](C)CNc1nccc(-c2cn(C(C)C)nc2-c2cc(Cl)cc(NS(C)(=O)=O)c2F)n1"
  label.value: "active"
- molecule: "CNCc1ccc(-c2[nH]c3cc(F)cc4c3c2CCNC4=O)cc1.O=P(O)(O)O [Rucaparib Phosphate]"
  label.value: "inactive"
- molecule: "CO[C@@]12[C@H](COC(N)=O)C3=C(C(=O)C(C)=C(N)C3=O)N1C[C@@H]1N[C@@H]12"
  label.value: "inactive"
- molecule: "CO[C@H]1C[C@@H]2CC[C@@H](C)[C@@](O)(O2)C(=O)C(=O)N2CCCC[C@H]2C(=O)O[C@H]([C@H](C)C[C@@H]2CC[C@@H](OCCO)[C@H](OC)C2)CC(=O)[C@H](C)/C=C(\\C)[C@@H](O)[C@@H](OC)C(=O)[C@H](C)C[C@H](C)/C=C/C=C/C=C/1C"
  label.value: "inactive"
- molecule: "CNC(=O)c1ccccc1Sc1ccc2c(/C=C/c3ccccn3)n[nH]c2c1"
  label.value: "inactive"

Assay outcome for CCCCCCNC(=O)n1cc(F)c(=O)[nH]c1=O : what was it?
inactive

Assay outcome for NC(=O)NO [Hydroxyurea] : what was it?
active

* * *

Tested on: NHEM-hTERT
Test: cell viability relative to DMSO control (fraction of DMSO control); higher = less cytotoxic, active = 0.5 or less
Settings: 1 µM; 120 h
quantity.measured: cell viability
Give bare numbers.

Illustrative cases are given below, each with its answer.
- compound: "CC(=O)c1c(C)c2cnc(Nc3ccc(N4CCNCC4)cn3)nc2n(C2CCCC2)c1=O [Palbociclib]"
  quantity.measured: "cell viability"
  number: 0.993
- compound: "Cc1ccc(NC(=O)C2(c3ccc4c(c3)OC(F)(F)O4)CC2)nc1-c1cccc(C(=O)O)c1 [Lumacaftor]"
  quantity.measured: "cell viability"
  number: 0.997
- compound: "CS(=O)(=O)O.Cc1ccc(NC(=O)c2ccc(CN3CCN(C)CC3)cc2)cc1Nc1nccc(-c2cccnc2)n1 [Imatinib Mesylate]"
  quantity.measured: "cell viability"
  number: 0.965

Could I get cell viability for every one of these entries?
1. CC(=O)Nc1cccc(-n2c(=O)n(C3CC3)c(=O)c3c(Nc4ccc(I)cc4F)n(C)c(=O)c(C)c32)c1 [Trametinib]
2. Cc1c(C)c2c(c(C)c1O)CCC(C)(COc1ccc(CC3SC(=O)NC3=O)cc1)O2 (centres undefined) [Troglitazone]
3. N#CC[C@H](C1CCCC1)n1cc(-c2ncnc3[nH]ccc23)cn1 [(R)-Ruxolitinib]
4. Nc1[nH]c(=O)ncc1F [Fluorocytosine]
5. N#CC1(c2ccc(NC(=O)c3cccnc3NCc3ccncc3)cc2)CCCC1 [Apatinib]
6. CC=Cc1ccc(OC)cc1 (stereo in doubt) [cis-Anethol]
7. CNCc1ccc(-c2[nH]c3cc(F)cc4c3c2CCNC4=O)cc1.O=P(O)(O)O [Rucaparib Phosphate]

1: 0.453; 2: 1.05; 3: 1.1; 4: 1.04; 5: 0.966; 6: 0.759; 7: 0.996

* * *

System: Mel-DCC-11-R
Test: cell viability relative to DMSO control (fraction of DMSO control); higher = less cytotoxic, active = 0.8 or less
Settings: 1 µM; 120 h; vemurafenib co-treatment 8 µM
Outcome field: choose from active, inactive

Below are worked cases with known answers.
- molecule: "CS(=O)(=O)OCCCCOS(C)(=O)=O [Busulfan]"
  label.value: "inactive"
- molecule: "CC(C)NCC(O)COc1cccc2ccccc12.Cl (stereo unspecified) [Propranolol hydrochloride]"
  label.value: "inactive"

Assay outcome for COc1cc([C@@H]2c3cc4c(cc3[C@@H](O[C@@H]3O[C@@H]5CO[C@@H](C)O[C@H]5[C@H](O)[C@H]3O)C3COC(=O)C32)OCO4)cc(OC)c1O (stereo partly specified) [Etoposide] : what was it?
inactive

Assay outcome for COc1cc2ncnc(Nc3ccc(F)c(Cl)c3)c2cc1OCCCN1CCOCC1 [Gefitinib] : what was it?
active

Assay outcome for C=C1CC[C@H](O)C/C1=C/C=C1\CCC[C@]2(C)[C@@H]([C@H](C)/C=C/[C@H](C)C(C)C)CC[C@@H]12 [Vitamin D2] : what was it?
inactive

Assay outcome for C=C[C@H]1[C@@H](O[C@@H]2O[C@H](CO)[C@@H](O)[C@H](O)[C@H]2O)OC=C2C(=O)OCC[C@]21O [Swertiamarin] : what was it?
inactive

Assay outcome for CC(C)C[C@@H](NC(=O)[C@H](O)[C@@H](N)Cc1ccccc1)C(=O)O.Cl [Bestatin hydrochloride] : what was it?
inactive

Assay outcome for NC(=O)c1cccc2cn(-c3ccc([C@@H]4CCCNC4)cc3)nc12 [Niraparib] : what was it?
inactive

Assay outcome for CN(C)C/C=C/C(=O)Nc1cc2c(Nc3ccc(F)c(Cl)c3)ncnc2cc1O[C@H]1CCOC1 [Afatinib] : what was it?
active

Assay outcome for CS(=O)(=O)CCNCc1ccc(-c2ccc3ncnc(Nc4ccc(OCc5cccc(F)c5)c(Cl)c4)c3c2)o1 [Lapatinib] : what was it?
inactive

Assay outcome for Nc1ccn([C@@H]2O[C@H](CO)[C@@H](O)[C@@H]2O)c(=O)n1 [Cytarabine] : what was it?
inactive

* * *

Would you kindly list cell viability for each of these compounds?
Tested on: NHEM-hTERT
Assay: cell viability relative to DMSO control (fraction of DMSO control); higher = less cytotoxic, active = 0.5 or less
Conditions: 1 µM; 120 h
Give bare numbers.

Illustrative cases are given below, each with its answer.
- compound: "Nc1nc(=O)c2c(CCc3ccc(C(=O)N[C@@H](CCC(=O)O)C(=O)O)cc3)c[nH]c2[nH]1"
  cell viability: 1.19
- compound: "CCc1c2c(nc3ccc(OC(=O)N4CCC(N5CCCCC5)CC4)cc13)-c1cc3c(c(=O)n1C2)COC(=O)[C@]3(O)CC.Cl.O.O.O [Irinotecan hydrochloride trihydrate]"
  cell viability: 0.875
- compound: "CC1(COc2ccc3c(c2)ncn3-c2ccc3cccc(N4CCC(N)CC4)c3n2)COC1"
  cell viability: 0.873

Note: attention shifts to another entry.
For NHEM-hTERT, provide cell viability of CCN(CC)CCNC(=O)c1c(C)[nH]c(/C=C2\C(=O)Nc3ccc(F)cc32)c1C please.
0.591

* * *

Tested on: Mel-DCC-11-R
Experiment: cell viability relative to DMSO control (fraction of DMSO control); higher = less cytotoxic, active = 0.8 or less
Details: 1 µM; 120 h; vemurafenib co-treatment 0 µM
Where a name gives a salt, the structure may show the parent alone.
quantity.measured: cell viability

- compound: "Nc1cccc2c1CN(C1CCC(=O)NC1=O)C2=O (stereo not drawn) [Lenalidomide]"
  cell viability: "0.713 (active)"
- compound: "CN(C)CCOc1ccc(/C(=C(/CCCl)c2ccccc2)c2ccccc2)cc1.O=C(O)CC(O)(CC(=O)O)C(=O)O [Toremifene citrate]"
  cell viability: "0.981 (inactive)"
- compound: "O=C(O)CCc1nc2ccccc2[nH]1"
  cell viability: "1.09 (inactive)"
- compound: "C.CCN(CC)CCCC(C)Nc1ccnc2cc(Cl)ccc12.O=P(O)(O)O.O=P(O)(O)O (stereo not drawn) [Chloroquine diphosphate]"
  cell viability: "0.913 (inactive)"
- compound: "CO[C@@]12[C@H](COC(N)=O)C3=C(C(=O)C(C)=C(N)C3=O)N1C[C@@H]1N[C@@H]12"
  cell viability: "1.6 (inactive)"
- compound: "Nc1ncn([C@H]2C[C@H](O)[C@@H](CO)O2)c(=O)n1"
  cell viability: "1.31 (inactive)"
- compound: "C=CC(=O)Nc1cc(Nc2nccc(-c3cn(C)c4ccccc34)n2)c(OC)cc1N(C)CCN(C)C.CS(=O)(=O)O [Osimertinib mesylate]"
  cell viability: "1.21 (inactive)"
- compound: "CC(C)(CO)c1cc2cc(NC(=O)C3(c4ccc5c(c4)OC(F)(F)O5)CC3)c(F)cc2n1C[C@@H](O)CO"
  cell viability: "1.18 (inactive)"

Could I get cell viability for every one of these entries?
1. COC(=O)/C=C/C(=O)OC [Dimethyl fumarate]
2. C=CC(=O)Nc1cc(Nc2nccc(-c3cn(C)c4ccccc34)n2)c(OC)cc1N(C)CCN(C)C
3. CC/C(=C(\c1ccccc1)c1ccc(OCCN(C)C)cc1)c1ccccc1.O=C(O)CC(O)(CC(=O)O)C(=O)O [Tamoxifen Z-isomer citrate]
4. CCS(=O)(=O)N1CC(CC#N)(n2cc(-c3ncnc4[nH]ccc34)cn2)C1
5. O=c1[nH]c(=O)n([C@H]2C[C@H](O)[C@@H](CO)O2)cc1C(F)(F)F

["1.06 (inactive)", "1.06 (inactive)", "0.873 (inactive)", "1 (inactive)", "1.24 (inactive)"]
